The origin of these recorded values is patent US20220396632A1.

Target: T1, Sulfotyrosine CCR2b biotin peptide (human)
T1 construct: also called CCR2b peptide
T1 peptide: TTFFD[sY]D[sY]GAPSHGGK(Biotin)
Assay: ELISA, 50 nM mAb
Non-standard residues stand in square brackets, D forms with d. No end group written: not given here. *: point of attachment. Biotin = O=C1N[C@H]2[C@H](CS[C@H]2CCCCC(=O)*)N1; sY = N[C@@H](Cc1ccc(OS(=O)(=O)O)cc1)C(=O)O
reported_property: binding normalized to PSGL-1
Note: the reply should be a number with no unit written.

Worked cases, answers included:
09D11 (antibody, IgG4, V domains shown) VH: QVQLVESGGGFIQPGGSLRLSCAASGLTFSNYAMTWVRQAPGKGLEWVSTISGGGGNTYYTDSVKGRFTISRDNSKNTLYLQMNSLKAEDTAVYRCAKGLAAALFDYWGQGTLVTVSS VL: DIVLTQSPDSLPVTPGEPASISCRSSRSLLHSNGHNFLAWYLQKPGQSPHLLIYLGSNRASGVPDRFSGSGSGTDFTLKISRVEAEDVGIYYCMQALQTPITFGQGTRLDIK    0.04
09C10 (antibody, V domains shown) VH: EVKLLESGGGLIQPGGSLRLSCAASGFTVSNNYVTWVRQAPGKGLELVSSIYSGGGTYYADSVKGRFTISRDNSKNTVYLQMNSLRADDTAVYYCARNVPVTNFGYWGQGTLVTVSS VL: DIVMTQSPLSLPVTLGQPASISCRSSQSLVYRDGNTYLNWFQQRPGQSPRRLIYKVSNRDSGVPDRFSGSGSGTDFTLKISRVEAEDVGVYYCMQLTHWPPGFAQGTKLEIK    1.23

Query: Need binding normalized to PSGL-1, item 03D01 (antibody, IgG4, V domains shown) VH: EVQLVQSGGGLVQPGGSLRLSCAATGFTVSRNYMTWVREAPGKGLEWVAGIYKSGTTSYIESVKGRFTISRDNSKNTLYLEMSRLRAEDTAVYYCAKSTSTWGQGTQVTVSS VL: DVVMTQSPVSLPVTLGQPASISCRSSRNLLYSNGNTYLNWFHQRPGQSPRRLIYKVSNQDSGVPDRFSGSGSGTDFTLKISRVEAEDVGVYYCMQGTHWPTTFGQGTRLEIK
Result: 0.94
